Recorded MIC values for a group of compounds are listed next.
Test system: M. avium
PROTOCOL DESCRIPTION: Microdilution broth resazurin assay, MIC
Assay type: cell-based, Mycobacterium avium
CONDITION SUMMARY: Mycobacterium avium, read-out: Antimycobacterial Activity MIC M. avium

// below: answered compounds
Cc1nc2cc(Cl)ccc2c(=O)n1/N=C/c1ccccc1F
≥ 31.2 µg/mL
Cc1nc2cc(Cl)ccc2c(=O)n1/N=C/c1ccccc1Br
≥ 31.2 µg/mL
Cc1nc2cc(Cl)ccc2c(=O)n1/N=C/c1cccc(Cl)c1
≥ 62.5 µg/mL

Note: attention shifts to another entry.
Asked: Entry under review: Cc1nc2cc(Cl)ccc2c(=O)n1/N=C/c1ccc(O)cc1O . Reported MIC?
Given back: ≥ 62.5 µg/mL

These data points were gathered from paper PMC12221116.
